Where do the numbers come from? From ChEMBL document CHEMBL4130508.

- Test system: Mycobacterium tuberculosis
- Assay method text: Antimycobacterial activity against Mycobacterium tuberculosis H37Rv ATCC 27294 by Alamar blue assay
- Type: functional
Bridge positions count the residues as written; N and C are the ends. Square brackets hold non-standard residues; d marks the D form. Peptide text beside a SMILES is read from it. * marks the point of attachment. NMeTrp(4-OMe) = CN[C@@H](Cc1c[nH]c2cccc(OC)c12)C(=O)O; NMe2Val = CC(C)[C@@H](C(=O)*)N(C)C; NMeT = CN[C@H](C(=O)O)[C@@H](C)O; NMeL = CN[C@@H](CC(C)C)C(=O)O; NMeV = CN[C@H](C(=O)O)C(C)C
Readout label: MIC (µg/mL)

molecule=CC[C@@H](C)[C@@H](C(=O)N[C@@H]1C(=O)N(C)[C@@H]([C@@H](C)O)C(=O)N[C@@H]([C@@H](C)CC)C(=O)N(C)[C@@H](CC(C)C)C(=O)N[C@@H](C(C)C)C(=O)N(C)[C@@H](C(C)C)C(=O)N(C)[C@@H](Cc2c[nH]c3cccc(OC)c23)C(=O)N[C@@H](C(C)C)C(=O)N[C@@H]([C@H](O)c2ccccc2)C(=O)N[C@@H](C(C)C)C(=O)O[C@@H]1C)N(C)C(=O)[C@@H](NC(=O)[C@H](C(C)C)N(C)C)C(C)C readout_label=MIC obs_value=0.26
molecule=CC[C@@H](C)[C@@H](C(=O)N[C@@H]1C(=O)N(C)[C@@H]([C@@H](C)O)C(=O)N[C@@H](C(C)C)C(=O)N(C)[C@@H](CC(C)C)C(=O)N[C@@H](C(C)C)C(=O)N(C)[C@@H](C(C)C)C(=O)N(C)[C@@H](Cc2c[nH]c3cccc(OC)c23)C(=O)N[C@@H](C(C)C)C(=O)N[C@@H](Cc2ccccc2)C(=O)N[C@@H](C(C)C)C(=O)O[C@@H]1C)N(C)C(=O)[C@@H](NC(=O)[C@H](C(C)C)N(C)C)C(C)C readout_label=MIC obs_value=0.55
molecule=CC[C@@H](C)[C@@H](C(=O)N[C@@H]1C(=O)N(C)[C@@H]([C@@H](C)O)C(=O)N[C@@H](C(C)C)C(=O)N(C)[C@@H](CC(C)C)C(=O)N[C@@H](C(C)C)C(=O)N(C)[C@@H](C(C)C)C(=O)N(C)[C@@H](Cc2c[nH]c3cccc(OC)c23)C(=O)N[C@@H]([C@@H](C)CC)C(=O)N[C@@H]([C@H](O)c2ccccc2)C(=O)N[C@@H](C(C)C)C(=O)O[C@@H]1C)N(C)C(=O)[C@@H](NC(=O)[C@H](C(C)C)N(C)C)C(C)C readout_label=MIC obs_value=0.26
molecule="COc1cccc2[nH]cc(C[C@H]3C(=O)N[C@@H](C(C)C)C(=O)N[C@@H](Cc4ccccc4)C(=O)N[C@@H](C(C)C)C(=O)O[C@H](C)[C@H](NC(=O)[C@H](C(C)C)N(C)C(=O)[C@@H](NC(=O)[C@H](C(C)C)N(C)C)C(C)C)C(=O)N(C)[C@@H]([C@@H](C)O)C(=O)N[C@@H](C(C)C)C(=O)N(C)[C@@H](CC(C)C)C(=O)N[C@@H](C(C)C)C(=O)N(C)[C@@H](C(C)C)C(=O)N3C)c12 (NMe2Val-V[NMeV]T[NMeT]V[NMeL]V[NMeV][NMeTrp(4-OMe)]VFV; ester 3-C)" readout_label=MIC obs_value=0.13
